# target.of.assay: LOXL2 (Homo sapiens (Human), UniProt Q9Y4K0)
# Sequence (Q9Y4K0 26-774): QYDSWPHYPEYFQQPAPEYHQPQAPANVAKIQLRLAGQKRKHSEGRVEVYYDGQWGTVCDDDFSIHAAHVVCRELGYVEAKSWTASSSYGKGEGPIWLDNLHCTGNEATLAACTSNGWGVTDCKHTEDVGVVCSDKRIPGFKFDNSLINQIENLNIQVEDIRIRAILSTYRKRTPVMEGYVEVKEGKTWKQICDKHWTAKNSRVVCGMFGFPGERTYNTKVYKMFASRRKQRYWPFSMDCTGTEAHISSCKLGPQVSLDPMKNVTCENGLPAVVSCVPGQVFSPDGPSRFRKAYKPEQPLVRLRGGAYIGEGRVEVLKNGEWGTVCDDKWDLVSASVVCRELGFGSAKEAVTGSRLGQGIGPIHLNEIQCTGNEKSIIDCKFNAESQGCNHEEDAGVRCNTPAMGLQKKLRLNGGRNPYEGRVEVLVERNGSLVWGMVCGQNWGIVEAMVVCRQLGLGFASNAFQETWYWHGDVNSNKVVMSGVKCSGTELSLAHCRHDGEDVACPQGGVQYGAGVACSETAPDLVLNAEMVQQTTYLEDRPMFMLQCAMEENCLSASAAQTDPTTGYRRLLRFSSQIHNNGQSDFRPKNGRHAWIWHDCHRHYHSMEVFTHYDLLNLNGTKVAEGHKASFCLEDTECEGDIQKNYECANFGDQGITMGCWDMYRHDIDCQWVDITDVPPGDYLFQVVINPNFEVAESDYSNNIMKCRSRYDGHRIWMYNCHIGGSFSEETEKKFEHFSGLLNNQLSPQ
# method.description: Jump dilution experiment, sustained inhibition of LOXL2;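 note: 30× IC50 used only where needed so inhibitor exceeds enzyme concentration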
# Format: biochemical
# test.settings: jump dilution after 40 min at 37 °C with 10× or 30× IC50; vs non-inhibited controls
Counter-ions that a name gives are not always drawn.
Each item that follows carries a reported LOXL2 - Recovery of activity. (%).
Your answer is read as %, so omit the unit and give the number.

Fill in: LOXL2 - Recovery of activity. (%) of CN(C)S(=O)(=O)c1ccc(COc2ccc(S(=O)(=O)C/C(F)=C/CN)cc2)cc1 [Compound 10, hydrochloride] is ___
15.2

Fill in: LOXL2 - Recovery of activity. (%) of CN(C)S(=O)(=O)c1ccc(COc2cccc(S(=O)(=O)C/C(F)=C/CN)c2)cc1 [Compound 9, hydrochloride] is ___
15.1

Fill in: LOXL2 - Recovery of activity. (%) of NC/C=C(\F)CS(=O)(=O)c1ccccc1Cl [Compound 19, hydrochloride] is ___
7.9

Fill in: LOXL2 - Recovery of activity. (%) of CN(C)S(=O)(=O)c1cccc(Oc2cccc(S(=O)(=O)C/C(F)=C/CN)c2)c1 [Compound 17, hydrochloride] is ___
5.3

Fill in: LOXL2 - Recovery of activity. (%) of CN(C)S(=O)(=O)c1cccc(Oc2ccccc2S(=O)(=O)C/C(F)=C/CN)c1 [Compound 18, hydrochloride] is ___
6.9

Fill in: LOXL2 - Recovery of activity. (%) of CN(C)S(=O)(=O)c1ccc(COc2ccccc2S(=O)(=O)C/C(F)=C/CN)cc1 [Compound 5, hydrochloride] is ___
10.0

Fill in: LOXL2 - Recovery of activity. (%) of CN(C)S(=O)(=O)c1ccc(Oc2ccccc2S(=O)(=O)C/C(F)=C/CN)cc1 [Compound 6, hydrochloride] is ___
10.4

Fill in: LOXL2 - Recovery of activity. (%) of NC/C=C(\F)CS(=O)(=O)c1cccc(C(=O)NC23CC4CC(CC(C4)C2)C3)c1 [Compound 13, hydrochloride] is ___
8.9

* * *

Each item that follows carries a reported IC50.
# target.of.assay: LOXL2 (Homo sapiens (Human), UniProt Q9Y4K0)
Where a name gives a salt, the structure may show the parent alone.

Some solved entries appear below for comparison.
>>> df
                                   compound    reported
0  NC/C=C(\F)CS(=O)(=O)c1ccccc1Cl [Compound 19, hydrochloride]   < 1000 nM
1  CN(C)S(=O)(=O)c1ccc(COc2ccc(S(=O)(=O)C/C(F)=C/CN)cc2)cc1 [Compound 10, hydrochloride]  < 10000 nM
2  NC/C=C(\F)CS(=O)(=O)c1ccc(Cl)cc1Cl [Compound 25, hydrochloride]   < 1000 nM

// moving on: another record for IC50
// fetch LOXL2 (Homo sapiens (Human), UniProt Q9Y4K0) IC50 for NC/C=C(\F)CS(=O)(=O)c1ccccc1OCc1ccc(S(N)(=O)=O)cc1 [Compound 8, hydrochloride]
< 1000 nM

* * *

# target.of.assay: Recombinant human MAO-B (Homo sapiens (Human), UniProt P27338)
# Sequence (P27338 whole entry): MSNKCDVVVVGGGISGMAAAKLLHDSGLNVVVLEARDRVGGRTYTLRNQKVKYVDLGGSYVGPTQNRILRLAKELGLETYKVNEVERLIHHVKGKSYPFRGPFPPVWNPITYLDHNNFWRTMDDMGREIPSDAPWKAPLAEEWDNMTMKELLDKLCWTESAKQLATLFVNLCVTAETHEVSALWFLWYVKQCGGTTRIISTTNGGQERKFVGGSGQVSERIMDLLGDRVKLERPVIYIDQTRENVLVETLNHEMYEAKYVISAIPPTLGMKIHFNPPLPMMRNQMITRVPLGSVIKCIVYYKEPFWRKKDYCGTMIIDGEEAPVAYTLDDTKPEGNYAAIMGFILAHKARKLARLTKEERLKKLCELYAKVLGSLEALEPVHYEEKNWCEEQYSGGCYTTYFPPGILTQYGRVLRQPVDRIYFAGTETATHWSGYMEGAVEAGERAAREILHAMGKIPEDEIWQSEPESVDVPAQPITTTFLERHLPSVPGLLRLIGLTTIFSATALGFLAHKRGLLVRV
# method.description: Inhibition of human recombinant MAO-B
# test.settings: benzylamine 100 μM
Counter-ions that a name gives are not always drawn.
measure: IC50

>>> print(df.to_string())
                                   molecule  measure  reported
0  NC/C=C(\F)CS(=O)(=O)c1ccccc1OCc1ccccc1 [Compound 7, hydrochloride]     IC50   > 30 µM
1  NC/C=C(\F)CS(=O)(=O)c1cccc(C(=O)NC23CC4CC(CC(C4)C2)C3)c1 [Compound 13, hydrochloride]     IC50   < 10 µM
2  CN(C)S(=O)(=O)c1ccc(COc2cccc(S(=O)(=O)C/C(F)=C/CN)c2)cc1 [Compound 9, hydrochloride]     IC50   < 10 µM
3  CC(C)NS(=O)(=O)c1ccc(COc2ccccc2S(=O)(=O)C/C(F)=C/CN)cc1 [Compound 14, hydrochloride]     IC50   > 30 µM
4       N#CCCN [BAPN, β-aminopropionitrile]     IC50   > 30 µM

Fill in: IC50 of NC/C=C(\F)CS(=O)(=O)c1ccc2ccccc2n1 [Compound 32, dihydrochloride] is ___
> 30 µM

Fill in: IC50 of NC/C=C(\F)CS(=O)(=O)c1ccc(C(=O)NC23CC4CC(CC(C4)C2)C3)cc1 [Compound 4, hydrochloride] is ___
< 10 µM
